biological target: CYP2C19 (Homo sapiens, UniProt P33261); construct: pooled human liver microsomes from a mixed pool of 50 donors; tissue BD Gentest Co. 452156; host or cells: human liver microsomes, pool of 50 donors; assay: Time-dependent inhibition (TDI) IC50 shift assay on CYP2C19 in HLMs; assay type: in vitro ADME; details: human, human liver microsomes, pH 7.4
Sequence (P33261 whole entry): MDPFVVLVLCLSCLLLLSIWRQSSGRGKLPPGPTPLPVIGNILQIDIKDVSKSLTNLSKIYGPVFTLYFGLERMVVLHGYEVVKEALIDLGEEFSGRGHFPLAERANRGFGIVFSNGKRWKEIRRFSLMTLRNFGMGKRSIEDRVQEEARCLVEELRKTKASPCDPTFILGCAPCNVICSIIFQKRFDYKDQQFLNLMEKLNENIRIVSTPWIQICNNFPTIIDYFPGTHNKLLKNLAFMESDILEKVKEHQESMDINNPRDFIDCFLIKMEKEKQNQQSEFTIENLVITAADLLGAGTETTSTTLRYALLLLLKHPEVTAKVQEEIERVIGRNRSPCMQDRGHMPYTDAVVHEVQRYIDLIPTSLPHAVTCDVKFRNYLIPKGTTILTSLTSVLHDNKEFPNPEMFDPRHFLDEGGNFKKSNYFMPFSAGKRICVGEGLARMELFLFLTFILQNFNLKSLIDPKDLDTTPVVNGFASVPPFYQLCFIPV
measured quantity: IC50 shift

Input line: Specify reported IC50 shift for the compound shown: `C[C@@H]1[C@H]2c3cc4c(cc3O[C@@]35OCOC3=CC(=O)[C@H](C[C@H]1C)[C@@H]25)OCO4`
Output line: 1.47

====

biological target: CYP2B6 (Homo sapiens, UniProt P20813); construct: pooled human liver microsomes from a mixed pool of 50 donors; tissue BD Gentest Co. 452156; host or cells: human liver microsomes, pool of 50 donors; assay: Time-dependent inhibition (TDI) IC50 shift assay on CYP2B6 in HLMs; assay type: in vitro ADME; details: HLMs; 0 min pre-incubation with NADPH; 10 min incubation; read-out: IC50 on CYP2B6, 0 min inactivation incubation (TDI)
Sequence (P20813 whole entry): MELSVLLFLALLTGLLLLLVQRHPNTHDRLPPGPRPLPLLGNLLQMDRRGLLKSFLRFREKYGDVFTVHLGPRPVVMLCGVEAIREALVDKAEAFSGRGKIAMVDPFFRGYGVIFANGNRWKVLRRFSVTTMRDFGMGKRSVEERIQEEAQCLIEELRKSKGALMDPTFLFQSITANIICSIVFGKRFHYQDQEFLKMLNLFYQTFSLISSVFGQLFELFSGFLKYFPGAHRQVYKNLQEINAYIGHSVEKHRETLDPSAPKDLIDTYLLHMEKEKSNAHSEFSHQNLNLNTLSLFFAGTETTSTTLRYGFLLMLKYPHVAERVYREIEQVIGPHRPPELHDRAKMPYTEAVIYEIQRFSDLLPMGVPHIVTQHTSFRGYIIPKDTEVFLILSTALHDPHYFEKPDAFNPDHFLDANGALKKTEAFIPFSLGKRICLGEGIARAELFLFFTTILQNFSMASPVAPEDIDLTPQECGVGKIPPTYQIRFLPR
measured quantity: IC50

Input line: Give recorded IC50. `C[C@@H]1[C@H]2c3cc4c(cc3O[C@@]35OCOC3=CC(=O)[C@H](C[C@H]1C)[C@@H]25)OCO4`
Output line: 36.4 µM
